# RUN DESCRIPTION: Single dose bioavailability study in the non-fasted state, 4 mg immediate release carbinoxamine maleate tablet
# Assay type: in vivo
# CONDITIONS: human, plasma, po, 4 mg, nonfasted, subject 101
ENDPOINT LABEL: Cmax (ng/mL)
Respond numerically; units are ng/mL and should not be typed.

Asked: Look up Cmax: CN(C)CCOC(c1ccc(Cl)cc1)c1ccccn1 (stereo not shown)
Given back: 8.11

====

# RUN DESCRIPTION: Single dose fasted bioavailability study, 4 mg immediate release carbinoxamine maleate tablet
# Type: in vivo
# CONDITIONS: plasma, po, 4 mg, Our study, Tablet 4 mg, AUC0-48
ENDPOINT LABEL: AUC(0-t) (ng·h/mL)
Respond numerically; units are ng·h/mL and should not be typed.

Asked: Look up AUC(0-t): CN(C)CCOC(c1ccc(Cl)cc1)c1ccccn1 (stereo not shown)
Given back: 137

====

# RUN DESCRIPTION: Single dose fasted bioavailability study, 4 mg immediate release carbinoxamine maleate tablet
# Type: in vivo
# CONDITIONS: human, plasma, po, 4 mg, fasted, subject 103, second AUC column
ENDPOINT LABEL: AUC(0-t)
Include the unit right after the number.

Asked: Look up AUC(0-t): CN(C)CCOC(c1ccc(Cl)cc1)c1ccccn1 (stereo not shown)
Given back: 111 ng·h/mL

====

# RUN DESCRIPTION: Single dose fasted bioavailability study, 4 mg immediate release carbinoxamine maleate tablet
# Format: in vivo
# CONDITIONS: human, plasma, po, 4 mg, fasted, subject 102
ENDPOINT LABEL: MRT (h)
Respond numerically; units are h and should not be typed.

Asked: Look up MRT: CN(C)CCOC(c1ccc(Cl)cc1)c1ccccn1 (stereo not shown) [carbinoxamine]
Given back: 25.9

====

# RUN DESCRIPTION: Single dose fasted bioavailability study, 4 mg immediate release carbinoxamine maleate tablet
# Format: in vivo
# CONDITIONS: human, plasma, po, 4 mg, Our study, Tablet 4 mg
# Source text: A single dose fasted bioavailability study was undertaken using four milligram immediate release carbinoxamine maleate tablets formulated in an immediate release format. Samples were taken over a forty eight hours period after administration of the drug, and the first meal was allowed to be ingested four hours after administration. […]
ENDPOINT LABEL: Cmax (ng/mL)
Respond numerically; units are ng/mL and should not be typed.

Asked: Look up Cmax: CN(C)CCOC(c1ccc(Cl)cc1)c1ccccn1 (stereo not shown)
Given back: 7.2

====

# RUN DESCRIPTION: Single dose bioavailability study in the non-fasted state, 4 mg immediate release carbinoxamine maleate tablet
# Format: in vivo
# CONDITIONS: human, plasma, po, 4 mg, nonfasted, subject 101
ENDPOINT LABEL: MRT (h)
Respond numerically; units are h and should not be typed.

Asked: Look up MRT: CN(C)CCOC(c1ccc(Cl)cc1)c1ccccn1 (stereo not shown)
Given back: 25.6

====

# RUN DESCRIPTION: Single dose bioavailability study in the non-fasted state, 4 mg immediate release carbinoxamine maleate tablet
# Type: in vivo
# CONDITIONS: human, plasma, po, 4 mg, nonfasted, subject 102
# Protocol: A single dose bioavailability study was also undertaken in the non-fasted state using 4 mg immediate release carbinoxamine maleate tablets formulated in an immediate release format. Samples were taken over a forty eight hours period after administration of the drug with heparinized tubes. Breakfast was ingested thirty minutes before administration. […]
ENDPOINT LABEL: half-life (h)
Respond numerically; units are h and should not be typed.

Asked: Look up half-life: CN(C)CCOC(c1ccc(Cl)cc1)c1ccccn1 (stereo not shown) [carbinoxamine]
Given back: 22.9

====

# RUN DESCRIPTION: Single dose fasted bioavailability study, 4 mg immediate release carbinoxamine maleate tablet
# Type: in vivo
# CONDITIONS: human, plasma, po, 4 mg, Our study, Tablet 4 mg
ENDPOINT LABEL: half-life (h)
Respond numerically; units are h and should not be typed.

Asked: Look up half-life: CN(C)CCOC(c1ccc(Cl)cc1)c1ccccn1 (stereo not shown)
Given back: 18.3

====

# RUN DESCRIPTION: Single dose fasted bioavailability study, 4 mg immediate release carbinoxamine maleate tablet
# Assay type: in vivo
# CONDITIONS: human, plasma, po, 4 mg, fasted, subject 103, first AUC column
ENDPOINT LABEL: AUC(0-t)
Include the unit right after the number.

Asked: Look up AUC(0-t): CN(C)CCOC(c1ccc(Cl)cc1)c1ccccn1 (stereo not shown)
Given back: 98.4 ng·h/mL

====

# RUN DESCRIPTION: Literature 1 (Stockis et al. 1992): bioavailability of 8 mg aqueous solution and 8 mg retard capsule of carbinoxamine
# CONDITIONS: in vivo, po; Literature 1, Retard capsule 8 mg, normalized to 4 mg dose
ENDPOINT LABEL: Cmax (ng/mL)
Respond numerically; units are ng/mL and should not be typed.

Asked: Look up Cmax: CN(C)CCOC(c1ccc(Cl)cc1)c1ccccn1 (stereo not shown)
Given back: 8.45

====

# RUN DESCRIPTION: Single dose fasted bioavailability study, 4 mg immediate release carbinoxamine maleate tablet
# Format: in vivo
# CONDITIONS: human, plasma, po, 4 mg, fasted, subject 101
ENDPOINT LABEL: half-life

Asked: Look up half-life: CN(C)CCOC(c1ccc(Cl)cc1)c1ccccn1 (stereo not shown)
Given back: 19.1 h

====

# RUN DESCRIPTION: Single dose bioavailability study in the non-fasted state, 4 mg immediate release carbinoxamine maleate tablet
# Assay type: in vivo
# CONDITIONS: human, plasma, po, 4 mg, nonfasted, subject 103
ENDPOINT LABEL: Cmax (ng/mL)
Respond numerically; units are ng/mL and should not be typed.

Asked: Look up Cmax: CN(C)CCOC(c1ccc(Cl)cc1)c1ccccn1 (stereo not shown) [carbinoxamine]
Given back: 10.7

====

# RUN DESCRIPTION: Single dose bioavailability study in the non-fasted state, 4 mg immediate release carbinoxamine maleate tablet
# Type: in vivo
# CONDITIONS: human, plasma, po, 4 mg, nonfasted, subject 102
ENDPOINT LABEL: Cmax (µg/mL)
Respond numerically; units are µg/mL and should not be typed.

Asked: Look up Cmax: CN(C)CCOC(c1ccc(Cl)cc1)c1ccccn1 (stereo not shown) [carbinoxamine]
Given back: 0.0189

====

# RUN DESCRIPTION: Single dose fasted bioavailability study, 4 mg immediate release carbinoxamine maleate tablet
# Assay type: in vivo
# CONDITIONS: human, plasma, po, 4 mg, fasted, subject 101
# Description: A single dose fasted bioavailability study was undertaken using four milligram immediate release carbinoxamine maleate tablets formulated in an immediate release format. Samples were taken over a forty eight hours period after administration of the drug, and the first meal was allowed to be ingested four hours after administration. […]
ENDPOINT LABEL: Cmax (ng/mL)
Respond numerically; units are ng/mL and should not be typed.

Asked: Look up Cmax: CN(C)CCOC(c1ccc(Cl)cc1)c1ccccn1 (stereo not shown) [carbinoxamine]
Given back: 8.02

====

# RUN DESCRIPTION: Single dose bioavailability study in the non-fasted state, 4 mg immediate release carbinoxamine maleate tablet
# Type: in vivo
# CONDITIONS: human, plasma, po, 4 mg, nonfasted, Mean
# Description: A single dose bioavailability study was also undertaken in the non-fasted state using 4 mg immediate release carbinoxamine maleate tablets formulated in an immediate release format. Samples were taken over a forty eight hours period after administration of the drug with heparinized tubes. Breakfast was ingested thirty minutes before administration. […]
ENDPOINT LABEL: Tmax (h)
Respond numerically; units are h and should not be typed.

Asked: Look up Tmax: CN(C)CCOC(c1ccc(Cl)cc1)c1ccccn1 (stereo not shown)
Given back: 2.67
